# System Under Test: D2 receptor (Rattus norvegicus)
# Sequence (P61169 whole entry): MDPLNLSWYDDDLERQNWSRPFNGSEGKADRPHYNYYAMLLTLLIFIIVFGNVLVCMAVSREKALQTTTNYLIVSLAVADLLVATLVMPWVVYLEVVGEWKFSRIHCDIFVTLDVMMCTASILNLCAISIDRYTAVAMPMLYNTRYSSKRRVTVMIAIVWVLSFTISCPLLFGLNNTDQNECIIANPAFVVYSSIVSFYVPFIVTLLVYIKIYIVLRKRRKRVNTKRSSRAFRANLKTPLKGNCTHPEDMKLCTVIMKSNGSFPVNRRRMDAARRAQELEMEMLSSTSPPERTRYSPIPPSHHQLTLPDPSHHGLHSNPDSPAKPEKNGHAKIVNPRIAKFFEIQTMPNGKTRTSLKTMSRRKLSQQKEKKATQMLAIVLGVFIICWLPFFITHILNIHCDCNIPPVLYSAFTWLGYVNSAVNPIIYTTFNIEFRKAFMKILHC
# Protocol Description: biochemical
# Assay type: binding
Counter-ions that a name gives are not always drawn.
Measured Attribute: pIC50
Answers are plain numbers, as −log10 of the molar value.

## Task May I ask what pIC50 has been recorded for C1=C(c2ccccc2)CCN(Cc2cccc(-c3ccccc3)c2)C1 [Compound 3, hydrochloride] ?
## Result 7.92

Each recorded value in this set is attributed to patent US6221871A.
